# inhibition annotations
target or system: Cathepsin G (Homo sapiens) (UniProt P08311)
Sequence (P08311 21-244 limits assumed): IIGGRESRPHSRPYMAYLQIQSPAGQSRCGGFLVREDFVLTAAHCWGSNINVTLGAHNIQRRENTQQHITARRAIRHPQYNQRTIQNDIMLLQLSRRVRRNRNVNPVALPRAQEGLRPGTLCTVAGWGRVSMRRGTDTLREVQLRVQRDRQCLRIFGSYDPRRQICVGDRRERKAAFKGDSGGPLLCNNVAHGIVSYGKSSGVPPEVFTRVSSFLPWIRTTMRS
method summary: human cathepsin G inhibitors, primary screen, biochemical, pooled compound mixtures, AMC fluorescence (AID 581);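 also: 0% = enzyme control without mixture and 100% = blank lacking enzyme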
experimental setup: purified enzyme, AMC-tetrapeptide fluorescence, hits give high values, screened at 5 µM (by protocol)
The campaign covered roughly 62,000 compounds. About 95 (0.2%) were called active. The sample holds actives, similar compounds and a random draw of the others, so the mix is not that of the screen.
Supply the numeric figure in %, leaving out any unit text.

compound | target or system | unit text | inhibition
CCCN1Cc2cccc(C(=O)NCc3ccccc3)c2C1=O | Cathepsin G (Homo sapiens) (UniProt P08311) | % | -0.625
Cc1ccc(-c2nc(CS(=O)CC(=O)NC3CCCC3)c(C)o2)cc1 (stereo unspecified) | Cathepsin G (Homo sapiens) (UniProt P08311) | % | -3.33
CC1(C)Cc2ccccc2-c2nc(CN3CCOCC3)[nH]c(=O)c21 | Cathepsin G (Homo sapiens) (UniProt P08311) | % | 3.33
Cc1cccc(-n2c(Cc3cc(=O)[nH]c(=O)[nH]3)nnc2SC(C)C)c1 | Cathepsin G (Homo sapiens) (UniProt P08311) | % | 10.3
CC(C)=C(NC(=O)c1ccco1)C(=O)NCCc1nc2ccccc2[nH]1 | Cathepsin G (Homo sapiens) (UniProt P08311) | % | 9.21

Shifting focus to the compound that follows.
Task: Could you share what inhibition was measured for `CSc1ccc(S(=O)(=O)Nc2cccc(F)c2)cc1` , tested on Cathepsin G (Homo sapiens) (UniProt P08311)?
Output: -1.91
